Multi-source literature compilation: IC50 on Tyrosine-protein phosphatase non-receptor type 1 (Homo sapiens, UniProt P18031).
observation-type: IC50 (nM)

* COc1ccc(-c2nc(-c3ccc(/C=C/C(=O)O)cc3)c(-c3ccc(/C=C/C(=O)O)cc3)[nH]2)cc1F | 1300
* COC(C)(C)C#Cc1cc(C(N)=O)cc2c(Br)c(C(F)(F)P(=O)(O)O)sc12 | 490
* CCCCCCCCCCn1c(C)ccc1-c1ccc(O[C@H](Cc2ccccc2)C(=O)O)cc1 | 210
* N#CC1(c2ccc(COc3cc(C(N)=O)cc4c(Br)c(C(F)(F)P(=O)(O)O)sc34)cc2)CC1 | 7.3
* CNc1nc(N)nc2nc(-c3c(Cl)cccc3Cl)ccc12 | 510

* * *

Endpoint summary: pIC50, system: Tyrosine-protein phosphatase non-receptor type 1 (Homo sapiens), multiple sources combined.
pIC50: −log10 of the molar value.
Classification field: fulfilled = pIC50 at or over 6; not fulfilled = pIC50 under 6.

- N#CC1CC1c1cc(-c2ccc(O)c(N3CC(=O)NS3(=O)=O)c2F)[nH]n1 (centres unmarked): fulfilled
- CC1(n2cc(-c3ccc(O)c(N4CC(=O)NS4(=O)=O)c3F)cn2)CC1: fulfilled
- O=C(N[C@@H]1CCCC[C@H]1c1ccccc1)c1ccc2sc(C(F)(F)P(=O)(O)O)c(Br)c2c1: not fulfilled
- CC(C)CNc1ccc(-c2ccc(O)c(N3CC(=O)NS3(=O)=O)c2F)cc1: fulfilled
- O=C1CN(c2c(O)ccc(-c3cc(C4CC4)nn3CC3CC3)c2F)S(=O)(=O)N1: fulfilled
- CC(NC(=O)c1ccc2sc(C(F)(F)P(=O)(O)O)c(Br)c2c1)c1cnccn1 (centres unmarked): not fulfilled
- CCCCNc1ccc(-c2ccc(O)c(N3CC(=O)NS3(=O)=O)c2F)cn1: fulfilled
- C#Cc1cc(OCCCC(F)(F)F)c2sc(C(F)(F)P(=O)(O)O)c(Br)c2c1: fulfilled
- O=C1CN(c2c(O)ccc(-c3ccc(NS(=O)(=O)C4CC4)nc3)c2F)S(=O)(=O)N1: fulfilled
- NC(=O)c1cc(OCCCC2(O)CC2)c2sc(C(F)(F)P(=O)(O)O)c(Br)c2c1: fulfilled
- COc1c(OCC2CCCCC2)cc2c(c1C=O)CC(O)OC2=O (centres unmarked): not fulfilled
- O=C1CN(c2c(O)ccc(-c3cc(C4CC4)n[nH]3)c2F)S(=O)(=O)N1: fulfilled
- CCc1csc([C@H](Cc2ccc(NS(=O)(=O)O)cc2)NC(=O)Cc2cccc(F)c2)n1: not fulfilled
- Cc1sc([C@H](Cc2ccc(NS(=O)(=O)O)cc2)NC(=O)C(C)(C)C)nc1-c1ccccc1: not fulfilled
- N#Cc1ccc2c(c1)CC(NC(=O)c1ccc3sc(C(F)(F)P(=O)(O)O)c(Br)c3c1)C2 (centres unmarked): not fulfilled
- NC(=O)c1cc(OCc2cccc(C(F)(F)F)c2)c2sc(C(F)(F)P(=O)(O)O)c(Br)c2c1: fulfilled
- O=C(NCc1cccnn1)c1cc(OCCCC2CC2)c2sc(C(F)(F)P(=O)(O)O)c(Br)c2c1: fulfilled

* * *

pIC50: −log10 of the molar value.
Here's a roundup of pIC50 values tested on Tyrosine-protein phosphatase non-receptor type 1 (Homo sapiens, UniProt P18031), taken from various published works.
observation-type: pIC50

- O=C(N[C@H]1CC(=O)N(C2CC2)C1)c1ccc2sc(C(F)(F)P(=O)(O)O)c(Br)c2c1: 5.09
- O=C1CN(c2c(O)ccc(-c3cc(CCC4CCCCC4)n[nH]3)c2F)S(=O)(=O)N1: ≥ 6.00
- Cc1ncc(-c2ccc(O)c(N3CC(=O)NS3(=O)=O)c2F)o1: ≥ 6.00
- O=C1C=C(c2cc3cc(Cl)cnc3cc2O)S(=O)(=O)N1: 5.00 to 6.00
- Cn1cc(-c2ccc(O)c(N3CC(=O)NS3(=O)=O)c2F)c(F)n1: ≥ 6.00
- COc1ncccc1CNC(=O)c1ccc2sc(C(F)(F)P(=O)(O)O)c(Br)c2c1: 5.41
- NC(=O)c1cc(OCCC2CCNS2(=O)=O)c2sc(C(F)(F)P(=O)(O)O)c(Br)c2c1 (single isomer, unassigned): 7.68
- O=C1CN(c2c(O)ccc(C3=CC(CC4CC4)NC3)c2F)S(=O)(=O)N1 (centres unmarked): ≥ 6.00

* * *

// merged dataset of IC50 values, system = Tyrosine-protein phosphatase non-receptor type 1 (Homo sapiens, UniProt P18031), multiple refs
observation-type: IC50

* O=C1CN(c2c(O)ccc(-c3cnn(C4CCCC4)c3)c2F)S(=O)(=O)N1 | ≤ 1 µM
* O=C1CN(c2c(O)ccc(-c3cnn(C(=O)C4CC4)c3)c2F)S(=O)(=O)N1 | ≤ 1 µM
* COc1cc(-c2ccc(O)c(N3CC(=O)NS3(=O)=O)c2F)c(F)cn1 | ≤ 1 µM
* CC(O)c1cc(-c2ccc(O)c(N3CC(=O)NS3(=O)=O)c2F)[nH]n1 (centres unmarked) | ≤ 1 µM
* CNc1nc(N)nc2cc(-c3c(C)cccc3Cl)ccc12 | 1.46 µM
* CN1CCc2cc(O)c(N3CC(=O)NS3(=O)=O)cc2C1=O | > 10 µM
* COc1ccc(-c2nc(-c3ccc(/C=C/C(=O)O)cc3)c(-c3ccc(/C=C/C(=O)O)cc3)[nH]2)cc1 | 0.25 µM
* O=C1CN(c2c(O)ccc(-c3cnn(Cc4ccc(F)c(F)c4)c3)c2F)S(=O)(=O)N1 | ≤ 1 µM

* * *

pIC50: −log10 of the molar value.
A compilation of pIC50 values for Tyrosine-protein phosphatase non-receptor type 1 (Homo sapiens) from the published literature.
observation-type: pIC50

* O=P(O)(O)C(F)(F)c1sc2c(OCCCC(F)(F)F)cc(-c3cnn[nH]3)cc2c1Br | 8.37
* NC(=O)c1cc(OCCC2CC2)c2sc(C(F)(F)P(=O)(O)O)c(Br)c2c1 | 6.86
* NC(=O)c1cc(OCCCS(N)(=O)=O)c2sc(C(F)(F)P(=O)(O)O)c(Br)c2c1 | 7.70
* CCC(NC(=O)c1ccc2sc(C(F)(F)P(=O)(O)O)c(Br)c2c1)c1nccs1 (centres unmarked) | 5.29
* O=C(O)CCCn1nnnc1-c1cccc(Oc2cccc(-c3nnc(Nc4ccc(Cl)c(Cl)c4)s3)c2)c1 | 5.70
* N#CCCNC(=O)c1cc(OCCCC(F)(F)F)c2sc(C(F)(F)P(=O)(O)O)c(Br)c2c1 | 7.74
* O=C(NCCn1ccnn1)c1ccc2sc(C(F)(F)P(=O)(O)O)c(Br)c2c1 | 5.50
* O=P(O)(O)C(F)(F)c1sc2c(OCC3CC3(F)F)cc(-c3nc[nH]n3)cc2c1Br (centres unmarked) | 8.60
* NC(=O)c1cc(OCC2CC2(F)F)c2sc(C(F)(F)P(=O)(O)O)c(Br)c2c1 (centres unmarked) | 7.63
* CNc1nc(N)nc2nc(-c3c(F)cccc3N3CCOCC3)ccc12 | 5.63
* O=C(NCc1cc[nH]n1)c1cc(OCCCC(F)(F)F)c2sc(C(F)(F)P(=O)(O)O)c(Br)c2c1 | 7.96
* C[C@@H]1C[C@@]1(F)COc1cc(C(N)=O)cc2c(Br)c(C(F)(F)P(=O)(O)O)sc12 | 7.16
* Cc1cc(S(C)(=O)=O)ccc1COc1cc(C(N)=O)cc2c(Br)c(C(F)(F)P(=O)(O)O)sc12 | 7.91
* COC(=O)N[C@@H](Cc1ccccc1)C(=O)N[C@@H](Cc1ccc(NS(=O)(=O)O)cc1)c1nc(C2CCCCC2)cs1 | 5.75
* CS(=O)(=O)N1CCC(Oc2cc(C(N)=O)cc3c(Br)c(C(F)(F)P(=O)(O)O)sc23)C1 (centres unmarked) | 7.27
* CC(C)(C#N)CCCOc1cc(C(N)=O)cc2c(Br)c(C(F)(F)P(=O)(O)O)sc12 | 7.80
* Cc1cc(NC(=O)c2ccc3sc(C(F)(F)P(=O)(O)O)c(Br)c3c2)n(Cc2ccccc2)n1 | 5.59
* NC(=O)c1cc(OCc2ccc(C(F)(F)F)cc2)c2sc(C(F)(F)P(=O)(O)O)c(Br)c2c1 | 7.53
* NC(=O)c1cc(OCc2ccc(-n3ccnc3)cc2)c2sc(C(F)(F)P(=O)(O)O)c(Br)c2c1 | 6.93
* CCCCCc1nc(-c2ccc(/C=C/C(=O)O)cc2)c(-c2ccc(/C=C/C(=O)O)cc2)[nH]1 | 6.11
* CC(=O)NCc1cc(OCCCC(F)(F)F)c2sc(C(F)(F)P(=O)(O)O)c(Br)c2c1 | 6.09
* CS(=O)(=O)CCCOc1cc(-c2cnn[nH]2)cc2c(Br)c(C(F)(F)P(=O)(O)O)sc12 | 8.59
* Cc1c(C(F)(F)P(=O)(O)O)sc2c(OCCCS(N)(=O)=O)cc(-c3nc[nH]n3)cc12 | 8.29
